- Target Or Test System: KRAS G12C (Homo sapiens, UniProt P01116+P62937, G12C)
- Sequence (P01116 1-169 isoform P01116-2 G12C limits assumed): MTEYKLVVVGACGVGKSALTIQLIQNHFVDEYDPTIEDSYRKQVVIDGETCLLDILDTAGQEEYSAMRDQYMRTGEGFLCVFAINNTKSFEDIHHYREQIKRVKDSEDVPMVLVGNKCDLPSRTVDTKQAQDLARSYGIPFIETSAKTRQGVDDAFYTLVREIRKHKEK
- Sequence (P62937 whole entry): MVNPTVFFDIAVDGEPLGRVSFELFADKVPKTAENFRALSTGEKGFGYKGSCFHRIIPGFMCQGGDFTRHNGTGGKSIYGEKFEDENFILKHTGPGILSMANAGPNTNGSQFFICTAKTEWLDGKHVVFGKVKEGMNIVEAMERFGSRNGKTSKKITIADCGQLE
- Assay Overview: Ras-Raf disruption/FRET/MOA assay, KRAS G12C
- Format: biochemical
- Conditions Used: disruption of BRAF RBD binding, with Cyclophilin A; read-out: KRAS G12C FRET IC50
pIC50: −log10 of the molar value.
Entries annotated with measured pIC50

Some compounds with recorded pIC50:
Compound	Target Or Test System	Property Name	Assay Value
CCn1c(-c2cccnc2[C@H](C)OC)c2c3cc(ccc31)-c1cc(cc(C(F)F)c1)C[C@H](NC(=O)[C@H](C1CCCC1)N1CC[C@]3(CCN(C(=O)[C@@H]4N[C@@H]4C4CC4)C3)C1=O)C(=O)N1CCC[C@H](N1)C(=O)OCC(C)(C)C2 [Compound 318]	KRAS G12C (Homo sapiens, UniProt P01116+P62937, G12C)	pIC50	6.00 to 7.00
CCn1c(-c2cc(N3CCN(C)CC3)cnc2[C@H](C)OC)c2c3cc(ccc31)-c1csc(n1)C[C@H](NC(=O)[C@H](C1CCCC1)N1CC[C@]3(CCN(C(=O)[C@@H]4N[C@@H]4C4CC4)C3)C1=O)C(=O)N1CCC[C@H](N1)C(=O)OCC(C)(C)C2 [Compound 324]	KRAS G12C (Homo sapiens, UniProt P01116+P62937, G12C)	pIC50	6.00 to 7.00
CCn1c(-c2cccnc2[C@H](C)OC)c2c3cc(ccc31)-c1cc(O)cc(c1)C[C@H](NC(=O)[C@H](C1CCCC1)N1CC[C@@]3(CCN(C(=O)[C@@H]4N[C@@H]4C4CC4)C3)C1=O)C(=O)N1CCC[C@H](N1)C(=O)OCC(C)(C)C2 [Compound 215]	KRAS G12C (Homo sapiens, UniProt P01116+P62937, G12C)	pIC50	7.00 to 8.00

Attention now turns to another entry.
Entry CCn1c(-c2cccnc2[C@H](C)OC)c2c3cc(ccc31)-c1cc(O)cc(c1)C[C@H](NC(=O)[C@H](C(C)C)N1CC[C@]3(CCCN(C(=O)[C@@H]4CN4)C3)C1=O)C(=O)N1CCC[C@H](N1)C(=O)OCC(C)(C)C2 [Compound 192] has what pIC50? > 8.00
